System: HT-29 cells
measurement_notes: Inhibition test for sphere-forming ability of cancer cells (Test Example 1), HT-29
Format: cell-based, human
experimental_parameters: concentration for 50% inhibition of cell proliferation, read-out: IC50 (μmol/L) HT-29 (Sphere IC50 value)
pIC50: −log10 of the molar value.
test_readout: pIC50

Here's what some known entries look like.
| query_smiles | system_name | test_readout | measured_value |
| --- | --- | --- | --- |
| O=C(Nc1cn(Cc2cccc(C(F)(F)F)c2)cn1)c1cncnc1 | HT-29 cells | pIC50 | 6.12 |
| O=C(/C=C/c1ccc(Br)cc1)Nc1cn(Cc2cccc(Cl)c2)cn1 | HT-29 cells | pIC50 | 7.70 |
| O=C(Nc1cn(Cc2cccc(Cl)c2)cn1)c1ccc(OCc2ccccc2)nc1 | HT-29 cells | pIC50 | 7.05 |

[A] CCOc1ccc(C(=O)Nc2cn(Cc3cccc(OC(F)(F)F)c3)cn2)cn1
[B] COc1ccc(C(=O)Nc2cn(Cc3c(F)cccc3F)cn2)cc1OC
[C] CN(C)c1ccc(/C=C/C(=O)Nc2cn(Cc3cccc(Cl)c3)cn2)cc1
[D] O=C(Nc1cn(Cc2cccc(Cl)c2)cn1)c1cnc2[nH]ccc2c1
[E] O=C(/C=C/c1ccc(F)cc1F)Nc1cn(Cc2cccc(Cl)c2)cn1
Please give the order of these molecules when sorted by pIC50, largest value leading. Write the labels, ordered according to the request. C, E, A, B, D

[1] COc1cc(/C=C/C(=O)Nc2cn(Cc3cccc(Cl)c3)cn2)cc(OC)c1OC
[2] COc1ccc(C(=O)Nc2cn(Cc3ccccc3F)cn2)cc1OC
[3] O=C(/C=C/c1cc(Cl)ccc1Cl)Nc1cn(Cc2cccc(Cl)c2)cn1
[4] O=C(Nc1ccc(CO)cc1)c1cn(Cc2cc(F)c(F)c(F)c2)cn1
Please give the order of these molecules when sorted by pIC50, largest value leading. Write the labels, ordered according to the request. 4, 3, 1, 2
(4: 7.10, 3: 6.22, 1: 6.00, 2: 5.33)

[P] COc1ccc(C(=O)Nc2cn(Cc3cccc(OC(F)(F)F)c3)cn2)cn1
[Q] O=C(Nc1cn(Cc2cccc(C(F)(F)F)c2)cn1)c1cccnn1
[R] O=C(/C=C/c1cccc(O)c1)Nc1cn(Cc2cccc(Cl)c2)cn1
[S] O=C(Nc1ccncn1)c1cn(Cc2cccc(Cl)c2)cn1
Please give the order of these molecules when sorted by pIC50, largest value leading. Write the labels, ordered according to the request. S, P, R, Q
(S: 6.34, P: 6.00, R: 5.58, Q: 5.25)

[P] O=C(Nc1cn(Cc2cccc(C(F)(F)F)c2)cn1)c1ccc2cccnc2c1
[Q] O=C(/C=C/c1ccccc1C(F)(F)F)Nc1cn(Cc2cccc(Cl)c2)cn1
[R] CC(C)Oc1ccc(C(=O)Nc2cn(Cc3cccc(Cl)c3)cn2)cn1
[S] Cc1ccccc1/C=C/C(=O)Nc1cn(Cc2cccc(Cl)c2)cn1
Please give the order of these molecules when sorted by pIC50, largest value leading. Write the labels, ordered according to the request. S, R, Q, P

[A] O=C(/C=C/c1ccccc1O)Nc1cn(Cc2cccc(Cl)c2)cn1
[B] COc1ccc(C(=O)Nc2cn(Cc3cccc(F)c3F)cn2)cc1OC
[C] O=C(Nc1cn(Cc2cccc(C(F)(F)F)c2)cn1)c1ccc(CC(F)F)nc1
Please give the order of these molecules when sorted by pIC50, largest value leading. Write the labels, ordered according to the request. B, C, A
(B: 6.08, C: 5.43, A: 5.09)

[A] O=C(Nc1cn(Cc2cccc(C(F)(F)F)c2)cn1)c1cnc(Br)c(F)c1
[B] CCOc1ccc(C(=O)Nc2cn(Cc3cccc(Cl)c3)cn2)cn1
For this pair, A and B , which shows a numerically higher pIC50? Give the label of your selection. B

[P] Nc1ccc(C(=O)Nc2cn(Cc3cccc(Cl)c3)cn2)cn1
[Q] COCCCOc1ccc(C(=O)Nc2cn(Cc3cccc(Cl)c3)cn2)cn1
Looking only at measured pIC50, which entry is lower, P or Q ? Give the label of your selection. P
(P: 5.26, Q: 6.14)

[P] O=C(Nc1cn(Cc2cccc(C(F)(F)F)c2)cn1)c1ccc2cnccc2n1
[Q] COc1ccc(C(=O)Nc2cn(Cc3cc(F)cc(F)c3F)cn2)cc1OC
[R] O=C(Nc1cn(Cc2cccc(C(F)(F)F)c2)cn1)c1cc2ccccc2cn1
Please order the records by their reported pIC50, lowest number first. Write the labels, ordered according to the request. R, Q, P

###

measurement_notes: Pharmacokinetic assay in tumor-bearing mice where HCT-116 cells were transplanted (Test Example 3)
Type: in vivo
experimental_parameters: female, BALB/cAnNCrlj-nu/nu, plasma; tumor-bearing nude mouse, oral single dose 100 mg/kg, 20% Labrasol, 1 hour; read-out: Plasma concentrations after oral administration, 1 hour
test_readout: concentration at 1 h (ng/mL)

[P] CC(=O)Nc1ccc(/C=C/C(=O)Nc2cn(Cc3cccc(OC(F)(F)F)c3)cn2)cc1 [Example 123]
[Q] CC(=O)Nc1ccc(/C=C/C(=O)Nc2cn(Cc3cccc(C(F)(F)F)c3)cn2)cc1.Cl [Example 122]
For this pair, P and Q , which shows a numerically higher concentration at 1 h? Give the label of your selection. P

[a] COc1ccc(/C=C/C(=O)Nc2cn(Cc3cccc(C(F)(F)F)c3)cn2)cc1OCCO [Example 128]
[b] N#Cc1ccc(/C=C/C(=O)Nc2cn(Cc3cccc(Cl)c3)cn2)cc1OCCO [Example 129]
Looking only at measured concentration at 1 h, which entry is lower, a or b ? Give the label of your selection. b
(b: 465 ng/mL, a: 4700 ng/mL)

###

Tested on: HCT-116 cells
measurement_notes: Inhibition test for sphere-forming ability of cancer cells in the presence of BSA (Test Example 2), HCT-116
Type: cell-based, human
experimental_parameters: HCT-116 cells, in the presence of 5% BSA, cultured 4 days
pIC50: −log10 of the molar value.
test_readout: pIC50

Here's what some known entries look like.
| query_smiles | pIC50 |
| --- | --- |
| COc1ccc(C(=O)Nc2cn(Cc3cc(F)c(F)c(F)c3F)cn2)cc1OC | 5.29 |
| CNc1ccc(/C=C/C(=O)Nc2cn(Cc3cccc(C(F)(F)F)c3)cn2)cn1 | 6.19 |

[1] Cc1csc(NC(=O)c2cn(Cc3cccc(Cl)c3)cn2)n1
[2] COc1ccc(C(=O)Nc2cn(Cc3cc(F)cc(Cl)c3)cn2)cc1OC
[3] COc1ccc(C(=O)Nc2cn(Cc3ccc(Cl)cc3)cn2)cc1OC
Please give the order of these compounds when sorted by pIC50, largest value leading. Write the labels, ordered according to the request. 2, 3, 1

###

Tested on: FaDu cells
measurement_notes: Inhibition test for sphere-forming ability of cancer cells (Test Example 1), FaDu
Type: cell-based, human
experimental_parameters: 1 μmol/L, value with %
test_readout: (100%-inhibition rate of cell proliferation) at 1 μmol/L, FaDu (%)
Quick reminder: number only, in %, skip the unit.

Here's what some known entries look like.
| molecule | measured_value |
| --- | --- |
| O=C(Nc1cn(Cc2cccc(Cl)c2)cn1)c1ccc(OCc2ccccc2)cc1 [Example 197] | 28.9 |
| CCCCOc1ccc(C(=O)Nc2cn(Cc3cccc(Cl)c3)cn2)cn1 [Example 135] | 25.0 |
| COc1ccc(C(=O)Nc2cn(Cc3ccc(C(F)(F)F)cc3)cn2)cc1OC [Example 287] | 53.0 |

// map COc1ccc(C(=O)Nc2cn(Cc3cccc(OCc4ccccc4)c3)cn2)cc1OC [Example 169] to recorded (100%-inhibition rate of cell proliferation) at 1 μmol/L, FaDu (system: FaDu cells) 68.6

// map COc1ccc(C(=O)Nc2cn(Cc3c(F)ccc(C)c3F)cn2)cc1OC [Example 167] to recorded (100%-inhibition rate of cell proliferation) at 1 μmol/L, FaDu (system: FaDu cells) 59.3

// map O=C(Nc1cn(Cc2cccc(C(F)(F)F)c2)cn1)c1ccc(=O)[nH]c1 [Example 199] to recorded (100%-inhibition rate of cell proliferation) at 1 μmol/L, FaDu (system: FaDu cells) 25.9

// map O=C(Nc1cn(Cc2cccc(C(F)(F)F)c2)cn1)c1ccc(F)nc1 [Example 226] to recorded (100%-inhibition rate of cell proliferation) at 1 μmol/L, FaDu (system: FaDu cells) 87.9

// map COc1ccc(C(=O)Nc2cn(Cc3cc(Cl)nc(Cl)c3)cn2)cc1OC [Example 170] to recorded (100%-inhibition rate of cell proliferation) at 1 μmol/L, FaDu (system: FaDu cells) 27.1

###

Test system: HT-29 cells
measurement_notes: Inhibition test for sphere-forming ability of cancer cells (Test Example 1), HT-29
Type: cell-based, human
experimental_parameters: concentration for 50% inhibition of cell proliferation, read-out: IC50 (μmol/L) HT-29 (Sphere IC50 value)
test_readout: IC50 (µmol/L)

Here's what some known entries look like.
| query_smiles | IC50 (µmol/L) |
| --- | --- |
| O=C(/C=C/c1c[nH]c2ccccc12)Nc1cn(Cc2cccc(Cl)c2)cn1 | 0.61 |
| CCNc1ccc(/C=C/C(=O)Nc2cn(Cc3cccc(Cl)c3)cn2)cn1 | 0.02 |
| Cc1cc(/C=C/C(=O)Nc2cn(Cc3cccc(Cl)c3)cn2)oc1C | 4.93 |
| COc1cc(C(=O)Nc2cn(Cc3cccc(Cl)c3)cn2)cnc1OC | 0.06 |
| CNc1ccc(C(=O)Nc2cn(Cc3cccc(Cl)c3)cn2)cn1 | 0.99 |

[P] CCOc1ccc(C(=O)Nc2cn(Cc3cccc(C(F)(F)F)c3)cn2)cn1
[Q] O=C(Nc1cn(Cc2cccc(C(F)(F)F)c2)cn1)c1ccncn1
[R] COc1cc(/C=C/C(=O)Nc2cn(Cc3cccc(Cl)c3)cn2)cc(OC)c1O
[S] O=C(Nc1cn(Cc2cc(F)c(F)c(F)c2)cn1)c1ccc2cnccc2c1
[T] O=C(Nc1cn(Cc2cccc(Cl)c2)cn1)c1cnc2ccccc2c1
Please order the records by their reported IC50, lowest number first. Write the labels, ordered according to the request. S, T, P, Q, R
(S: 0.06 µmol/L, T: 0.2 µmol/L, P: 0.82 µmol/L, Q: 4.65 µmol/L, R: 8.37 µmol/L)

[A] O=C(/C=C/c1cnc2ccccc2c1)Nc1cn(Cc2cccc(Cl)c2)cn1
[B] O=C(/C=C/c1cccs1)Nc1cn(Cc2cccc(Cl)c2)cn1
[C] COc1ccc(C(=O)Nc2cn(Cc3c(F)c(F)c(F)c(F)c3F)cn2)cc1OC
Please order the records by their reported IC50, lowest number first. Write the labels, ordered according to the request. A, B, C
